Measured values drawn from patent US20240376114A1 for this set.

Target: CRM1 (Homo sapiens (Human), UniProt O14980)
Sequence (O14980 whole entry): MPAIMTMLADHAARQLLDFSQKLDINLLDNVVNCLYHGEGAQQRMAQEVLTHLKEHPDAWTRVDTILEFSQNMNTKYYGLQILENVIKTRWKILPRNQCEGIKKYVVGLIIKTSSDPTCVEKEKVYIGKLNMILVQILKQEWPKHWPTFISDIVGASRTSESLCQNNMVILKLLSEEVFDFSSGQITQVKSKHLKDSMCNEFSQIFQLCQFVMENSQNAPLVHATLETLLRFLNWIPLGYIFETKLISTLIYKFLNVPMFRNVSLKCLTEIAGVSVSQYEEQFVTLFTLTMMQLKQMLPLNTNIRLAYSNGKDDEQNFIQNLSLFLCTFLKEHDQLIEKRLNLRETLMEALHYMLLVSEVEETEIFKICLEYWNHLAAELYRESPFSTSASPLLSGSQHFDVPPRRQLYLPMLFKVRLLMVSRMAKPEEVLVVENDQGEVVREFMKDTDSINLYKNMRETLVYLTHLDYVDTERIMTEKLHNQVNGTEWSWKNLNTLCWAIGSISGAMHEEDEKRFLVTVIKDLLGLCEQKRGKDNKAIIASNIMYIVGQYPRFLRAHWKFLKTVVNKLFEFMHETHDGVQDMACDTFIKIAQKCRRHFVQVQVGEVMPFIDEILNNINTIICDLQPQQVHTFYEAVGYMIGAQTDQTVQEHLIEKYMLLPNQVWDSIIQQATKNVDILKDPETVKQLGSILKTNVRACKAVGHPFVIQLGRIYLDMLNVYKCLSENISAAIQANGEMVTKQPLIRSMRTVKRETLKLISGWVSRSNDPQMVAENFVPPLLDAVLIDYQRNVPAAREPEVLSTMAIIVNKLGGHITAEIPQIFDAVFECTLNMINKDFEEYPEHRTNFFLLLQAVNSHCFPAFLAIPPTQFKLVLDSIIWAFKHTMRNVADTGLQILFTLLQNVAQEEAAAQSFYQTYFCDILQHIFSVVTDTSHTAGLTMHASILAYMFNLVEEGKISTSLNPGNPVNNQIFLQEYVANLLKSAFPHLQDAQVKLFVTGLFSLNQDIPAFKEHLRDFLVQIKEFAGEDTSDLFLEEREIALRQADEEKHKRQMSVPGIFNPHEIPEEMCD
Experiment: RevGFP assay: inhibition of CRM1-mediated nuclear export
Format: cell-based
Settings: U2OS-RevGFP cells, about 1 hr incubation; read-out: Rev Export [IC50]
Experimental: The ability of exemplary compounds of the invention to inhibit CRM1-mediated nuclear export was assessed in a RevGFP assay. […] In this assay, U2OS-RevGFP cells were seeded onto clear-bottomed, black, 384-well plates the day before the experiment. […] The amount of GFP in cell nuclei was measured and the IC50 of each compound was determined (Kau et al. 2003). […]
pIC50: −log10 of the molar value. Where a name gives a salt, the structure may show the parent alone.
Endpoint name: pIC50

1) O=C(/C=C/n1cnc(-c2cc(C(F)(F)F)cc(C(F)(F)F)c2)n1)N1CC(F)(F)C1; > 6.00

For reference, reported pIC50 for O=C(/C=C\n1cnc(-c2cc(C(F)(F)F)cc(C(F)(F)F)c2)n1)NC1C2CNCC21 (centres unmarked) [Compound 56, hydrochloride] stands at > 6.00
